Let's go through some recorded IC50 values for Cholinesterase (Equus caballus) together.
Response body: numeric value in µM, unit text excluded.

For orientation, consider the following solved cases.
{"COMPOUND STRING": "N/C(=N\\O)c1cccc(NC(=O)Nc2ccc(O)cc2)c1", "TARGET DESC": "Cholinesterase (Equus caballus)", "IC50 [µM]": 14.4}
{"COMPOUND STRING": "NC(=NO)c1cccc(NC(=O)Nc2ccccc2Cl)c1", "TARGET DESC": "Cholinesterase (Equus caballus)", "IC50 [µM]": 15.4}

(Q) So what's the measured IC50 for this one? N/C(=N\O)c1cccc(NC(=O)Nc2ccc(Cl)cc2)c1
(A) 16.5

(Q) # IC50 lookup, item NC(=NO)c1cccc(NC(=O)Nc2ccc(F)cc2)c1
(A) 17.7

(Q) IC50 for N/C(=N\O)c1cccc(NC(=O)Nc2ccccc2F)c1 ?
(A) 11.3

(Q) Dear colleague, I am looking for the recorded IC50 of the following compound: NC(=NO)c1cccc(NC(=O)Nc2cccc([N+](=O)[O-])c2)c1
(A) 16.3

----------
# TARGET DESC: Acetylcholinesterase (Homo sapiens, UniProt P22303)
# Sequence (P22303 whole entry): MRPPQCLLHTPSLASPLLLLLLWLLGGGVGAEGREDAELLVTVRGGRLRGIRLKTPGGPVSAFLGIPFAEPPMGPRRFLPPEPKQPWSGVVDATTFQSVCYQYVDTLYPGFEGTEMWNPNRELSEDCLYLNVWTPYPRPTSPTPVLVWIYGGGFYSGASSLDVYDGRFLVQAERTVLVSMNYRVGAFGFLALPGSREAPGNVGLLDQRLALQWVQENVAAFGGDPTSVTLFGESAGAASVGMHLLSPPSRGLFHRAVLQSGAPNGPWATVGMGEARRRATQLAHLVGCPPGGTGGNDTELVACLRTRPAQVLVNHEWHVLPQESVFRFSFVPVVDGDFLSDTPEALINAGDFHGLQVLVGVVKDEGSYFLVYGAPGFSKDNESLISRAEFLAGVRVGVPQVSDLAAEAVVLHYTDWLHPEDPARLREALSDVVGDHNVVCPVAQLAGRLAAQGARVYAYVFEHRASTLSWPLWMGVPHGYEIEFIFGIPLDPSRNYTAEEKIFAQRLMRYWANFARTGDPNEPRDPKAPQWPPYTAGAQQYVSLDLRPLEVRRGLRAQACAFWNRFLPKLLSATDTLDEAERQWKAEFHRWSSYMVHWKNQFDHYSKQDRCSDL
# EXPERIMENT: Inhibition of AChE (unknown origin)
QUANTITY KIND: pIC50
Keep it numeric: pIC50 is minus log10 of the concentration in mol/L.

(Q) What pIC50 value was documented for this compound, COc1cc(/C=C/C(=O)NCC(=O)NCCc2c[nH]c3ccccc23)ccc1O ?
(A) 6.02

----------
Recorded below: pIC50, system Cholinesterase (Equus caballus).
To interpret pIC50, take it as minus log10 of a concentration measured in moles per litre.

Example entries and their recorded answers appear below.
{"COMPOUND STRING": "COc1cccc(NC(=O)Nc2ccc(/C(N)=N/O)cc2)c1", "QUANTITY KIND": "pIC50", "RESULT": 4.74}
{"COMPOUND STRING": "Cc1ccccc1NC(=O)Nc1cccc(/C(N)=N/O)c1", "QUANTITY KIND": "pIC50", "RESULT": 4.81}
{"COMPOUND STRING": "Cc1ccccc1NC(=O)Nc1ccc(/C(N)=N/O)cc1", "QUANTITY KIND": "pIC50", "RESULT": 4.77}
{"COMPOUND STRING": "NC(=NO)c1cccc(NC(=O)Nc2ccc([N+](=O)[O-])cc2)c1", "QUANTITY KIND": "pIC50", "RESULT": 4.75}

Shift focus to the following entry.
(Q) Could you share which pIC50 value was measured for NC(=NO)c1cccc(NC(=O)Nc2cccc(Cl)c2)c1 ?
(A) 4.73

----------
# TARGET DESC: UniProt P22303
# EXPERIMENT: Inhibition of human AChE using ATCI as substrate preincubated for 30 mins followed by substrate addition measured after 30 mins by Ellman's method
QUANTITY KIND: pIC50
Scale note: pIC50 = -log10(concentration in M).

// known answers, use as guide
{"COMPOUND STRING": "N/C(=N\\O)c1ccc(NC(=O)Nc2ccc(Cl)cc2)cc1", "pIC50": 5.12}
{"COMPOUND STRING": "NC(=NO)c1cccc(NC(=O)Nc2cccc([N+](=O)[O-])c2)c1", "pIC50": 4.92}
{"COMPOUND STRING": "NC(=NO)c1cccc(NC(=O)Nc2ccc([N+](=O)[O-])cc2)c1", "pIC50": 4.79}
{"COMPOUND STRING": "COc1cccc(NC(=O)Nc2ccc(/C(N)=N/O)cc2)c1", "pIC50": 5.04}
{"COMPOUND STRING": "Cc1ccccc1NC(=O)Nc1ccc(/C(N)=N/O)cc1", "pIC50": 5.07}
{"COMPOUND STRING": "N/C(=N\\O)c1cccc(NC(=O)Nc2ccc(C(F)(F)F)cc2)c1", "pIC50": 4.91}
{"COMPOUND STRING": "COc1ccc2[nH]cc(CCNC(=O)Nc3cccc(/C(N)=N/O)c3)c2c1", "pIC50": 6.04}
{"COMPOUND STRING": "N/C(=N\\O)c1cccc(NC(=O)Nc2ccc3[nH]ccc3c2)c1", "pIC50": 5.20}
{"COMPOUND STRING": "NC(=NO)c1cccc(NC(=O)Nc2ccc(Br)cc2)c1", "pIC50": 4.77}
{"COMPOUND STRING": "N/C(=N\\O)c1cccc(NC(=O)Nc2cccc(C(F)(F)F)c2)c1", "pIC50": 4.77}

API: the following record is the query input.
(Q) Can you look up the measured pIC50 of N/C(=N\O)c1cccc(NC(=O)Nc2ccccc2F)c1 for me?
(A) 4.73

----------
# TARGET DESC: Acetylcholinesterase (Homo sapiens)
# EXPERIMENT: Inhibition of human AChE using ATCI as substrate preincubated for 30 mins followed by substrate addition measured after 30 mins by Ellman's method
Listed next: entries and their corresponding pIC50.
Quick note: pIC50 values are minus log10 of concentrations in mol/L.

Some compounds with recorded pIC50:
{"COMPOUND STRING": "NC(=NO)c1cccc(NC(=O)Nc2ccc(F)cc2)c1", "pIC50": 5.12}
{"COMPOUND STRING": "NC(=NO)c1ccc(NC(=O)Nc2cccc(Br)c2)cc1", "pIC50": 5.19}
{"COMPOUND STRING": "N/C(=N\\O)c1ccc(NC(=O)Nc2ccc3[nH]ccc3c2)cc1", "pIC50": 5.13}

(Q) Quick one: pIC50 for N/C(=N\O)c1cccc(NC(=O)Nc2ccc(O)cc2)c1 ?
(A) 4.79

(Q) Looking for the measured pIC50 of N/C(=N\O)c1cccc(NC(=O)Nc2ccc(Cl)cc2)c1 , can you help?
(A) 4.85

(Q) Which value of pIC50 has been reported for NC(=NO)c1cccc(NC(=O)Nc2ccccc2C(F)(F)F)c1 in the records?
(A) 4.74

----------
# EXPERIMENT: Antioxidant activity assessed as inhibition of DPPH radical scavenging activity incubated for 30 mins by absorbance based analysis
# Assay type: functional
Cut-off 20 µM on IC50: below means Y, at or above means N.

(Q) Given the entry N/C(=N\O)c1cccc(NC(=O)Nc2ccc3[nH]ccc3c2)c1 , would its reported IC50 be below 20 µM?
(A) N

(Q) Does the reported IC50 of COc1ccc2[nH]cc(CCNC(=O)Nc3cccc(/C(N)=N/O)c3)c2c1 stay below 20 µM?
(A) Y

(Q) I'd appreciate it if you could check whether N/C(=N\O)c1cccc(NC(=O)Nc2cccc(F)c2)c1 has IC50 smaller than 20 µM.
(A) Y

(Q) Field: below-cutoff. Rule: recorded IC50 strictly less than 20 µM. Subject: O=c1c(O)c(-c2ccc(O)c(O)c2)oc2cc(O)cc(O)c12
(A) Y

(Q) Does the reported IC50 of N/C(=N\O)c1cccc(NC(=O)Nc2ccc3ncccc3c2)c1 stay below 20 µM?
(A) Y

----------
# TARGET DESC: UniProt P22303
# EXPERIMENT: Inhibition of human AChE using ATCI as substrate preincubated for 30 mins followed by substrate addition measured after 30 mins by Ellman's method
// log10(IC50) lookup, one value per entry
On a log10 scale: recorded IC50, unit µM.

(Q) What log10(IC50) value was documented for this compound, N/C(=N\O)c1cccc(NC(=O)Nc2cccc(F)c2)c1 ?
(A) 0.24

(Q) Which log10(IC50) is listed for Cc1ccccc1NC(=O)Nc1cccc(/C(N)=N/O)c1 ?
(A) 1.24

(Q) For the compound N/C(=N\O)c1cccc(NC(=O)NCCc2c[nH]c3ccc(Cl)cc23)c1 , what log10(IC50) is on record?
(A) 0.06

----------
# TARGET DESC: Acetylcholinesterase (Homo sapiens)
# EXPERIMENT: Inhibition of human AChE using ATCI as substrate preincubated for 30 mins followed by substrate addition measured after 30 mins by Ellman's method
QUANTITY KIND: IC50 (µM)
A number alone suffices; assume µM.

Some entries whose results are on file:
{"COMPOUND STRING": "N/C(=N\\O)c1cccc(NC(=O)Nc2cccc(Br)c2)c1", "IC50 [µM]": 14.5}
{"COMPOUND STRING": "NC(=NO)c1cccc(NC(=O)Nc2cccc(O)c2)c1", "IC50 [µM]": 14.5}
{"COMPOUND STRING": "COc1cccc(NC(=O)Nc2cccc(/C(N)=N/O)c2)c1", "IC50 [µM]": 12.9}

(Q) Find the measured IC50: item N/C(=N\O)c1cccc(NC(=O)NCCc2c[nH]c3ccccc23)c1 , target or system Acetylcholinesterase (Homo sapiens).
(A) 1.54

(Q) Recall the recorded IC50 for NC(=NO)c1cccc(NC(=O)Nc2ccc3ncccc3c2)c1 with Acetylcholinesterase (Homo sapiens) and state it.
(A) 5.68

(Q) Request - read-out IC50 | tested on Acetylcholinesterase (Homo sapiens) | compound N/C(=N\O)c1ccc(NC(=O)Nc2cccc(F)c2)cc1
(A) 3.04

Data provenance is ChEMBL document CHEMBL6092212.
